molecular target: human plasma kallikrein (Homo sapiens); assay: Kallikrein inhibition FLINT assay with quenched AMC peptide substrate Z-Gly-Pro-Arg-AMC (end point EP or kinetic KIN reads); format: biochemical; details: kinetic reads at 5 min intervals over 30 min; read-out: Kallikrein (KIN) IC50
Sequence (P03952 391-638 limits assumed): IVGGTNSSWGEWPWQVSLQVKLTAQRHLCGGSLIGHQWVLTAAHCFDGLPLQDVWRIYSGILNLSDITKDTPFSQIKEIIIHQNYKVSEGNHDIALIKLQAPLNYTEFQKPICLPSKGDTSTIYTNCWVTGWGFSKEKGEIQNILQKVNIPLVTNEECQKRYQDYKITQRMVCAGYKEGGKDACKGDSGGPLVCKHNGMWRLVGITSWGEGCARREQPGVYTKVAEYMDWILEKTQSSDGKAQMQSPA
Sequence (P03952 20-390 partner limits assumed): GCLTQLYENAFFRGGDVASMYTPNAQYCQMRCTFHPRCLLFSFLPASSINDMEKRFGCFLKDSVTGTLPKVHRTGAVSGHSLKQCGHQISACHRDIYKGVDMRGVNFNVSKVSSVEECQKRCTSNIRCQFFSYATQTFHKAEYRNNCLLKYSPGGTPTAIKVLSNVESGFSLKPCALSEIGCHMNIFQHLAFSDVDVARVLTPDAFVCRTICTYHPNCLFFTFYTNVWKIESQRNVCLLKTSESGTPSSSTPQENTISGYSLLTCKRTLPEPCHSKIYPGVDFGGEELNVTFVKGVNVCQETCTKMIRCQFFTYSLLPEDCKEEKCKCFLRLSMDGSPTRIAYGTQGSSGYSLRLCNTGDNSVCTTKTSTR
observationType: IC50 (nM)

Worked set:
molecule | IC50 / nM
Cn1ncnc1-c1cnn(C(CCOC(F)F)c2ccc(-c3c(-n4cc(OC(F)F)nn4)ccc(Cl)c3F)c[n+]2[O-])c1 (stereo not drawn) | 84.1
[O-][n+]1cc(-c2c(-n3cc(Cl)nn3)ccc(Cl)c2F)ccc1[C@@H](CCOC(F)F)n1cc(-c2nncn2C(F)F)cn1 | 334
O=C(NC1CC1)c1ccc(-c2cnn(C(Cc3ccc(F)cc3)c3ccc(-c4cc(Cl)ccc4-n4cnnn4)c[n+]3[O-])c2)cc1 (stereo not drawn) | 5.4
CC1CC1CC(c1ccc(-c2c(-n3cnnn3)ccc(Cl)c2F)c[n+]1[O-])n1cc(-c2ccc(C(=O)O)cc2)cn1 (stereo not drawn) | 11.9
[O-][n+]1cc(-c2c(-n3cnnn3)ccc(Cl)c2F)ccc1[C@H](Cn1cc(F)cn1)n1cc(-c2cncs2)cn1 | 179

1 = NC(=O)c1ccc(-c2cnn(C(Cc3ccn(C(F)F)n3)c3ccc(-c4c(-n5cc(C(F)(F)F)nn5)ccc(Cl)c4F)c[n+]3[O-])c2)cc1F (stereo not drawn) [Example P892]
2 = Cc1nnc(CC(c2ccc(-c3c(-n4cc(C(F)(F)F)nn4)ccc(Cl)c3F)c[n+]2[O-])n2cc(-c3ccc(C(N)=O)c(F)c3)cn2)o1 (stereo not drawn)
// pick larger IC50 from pair: 1 vs 2 The response must carry the label of the picked entry.
2
(2: 7.6 nM, 1: 2.9 nM)

P = COC(=O)N(C)CC(c1ccc(-c2c(-n3cnnn3)ccc(Cl)c2F)c[n+]1[O-])n1cc(-c2cc[n+]([O-])c(C(F)F)c2)cn1 (single isomer, unassigned)
Q = [O-][n+]1cc(-c2c(-n3cnnn3)ccc(Cl)c2F)ccc1C(Cn1ccc(-c2ccccc2)n1)n1cc(-c2ccncc2)cn1 (stereo not drawn)
When P and Q are compared, which has the higher number for IC50? Response format: the label of the selected entry.
Q
(Q: 268 nM, P: 64.1 nM)

I = [O-][n+]1cc(-c2c(-n3cc(Cl)nn3)ccc(Cl)c2F)ccc1[C@@H](Cn1cc(OC(F)F)cn1)n1cc(-c2cn(C(F)F)nn2)cn1
II = [O-][n+]1cc(-c2c(-n3cnnn3)ccc(Cl)c2F)ccc1C(CC1CC1)n1cc(-c2ccnc(OC(F)F)c2)cn1 (stereo not drawn)
III = COC(=O)Nc1ccc(-c2cnn(C(CC3CC3C(=O)N3CCCC(c4ccccc4)C3)c3ccc(-c4c(-n5cnnn5)ccc(Cl)c4F)c[n+]3[O-])c2)cc1 (stereo not drawn) [Example P221]
IV = Nc1ncc(-c2cnn(C(CC3CC3)c3ccc(-c4c(-n5cnnn5)ccc(Cl)c4F)c[n+]3[O-])c2)cc1F (single isomer, unassigned)
Rank order required: IC50, descending. Put the labels in the requested order and list them out.
I, III, IV, II

The measurements presented in this section are drawn from patent US11814364B2.
